Method description: Metabolic stability in rat liver microsomes assessed as compound remaining after 30 mins
Assay type: ADME, Microsome
Particulars: read-out: Stability
Result type: remaining at 0.5 h (%)

INSERT INTO assay_data (compound, result_type, observed_value) VALUES
  ('CCCS(=O)(=O)c1ccc2[nH]c(N3CCC(c4ccccc4)C3)nc2c1 (centres undefined)', 'remaining at 0.5 h', 19.2),
  ('CC(C)(C)S(=O)(=O)c1ccc2[nH]c(N3CCOC(c4ccccc4)C3)nc2c1 (centres undefined)', 'remaining at 0.5 h', 56.4),
  ('CCS(=O)(=O)c1ccc2[nH]c(N3CCOC(c4ccc(Cl)cc4)C3)nc2c1 (centres undefined)', 'remaining at 0.5 h', 87.2),
  ('CC(C)S(=O)(=O)c1ccc2nc(N3CCOC(c4ccccc4)C3)[nH]c2c1 (centres undefined)', 'remaining at 0.5 h', 49.5);

1: CC(C)(C(F)(F)F)S(=O)(=O)c1ccc2nc(N3CCOC(c4ccccc4)C3)[nH]c2c1 (centres undefined)
2: CC(C)CS(=O)(=O)c1ccc2[nH]c(N3CCOC(c4ccccc4)C3)nc2c1 (centres undefined)
In: Which numeric remaining at 0.5 h is bigger, that of 1 or that of 2 ? # respond with the chosen item's label
Out: 1

a: CCS(=O)(=O)c1ccc2[nH]c(N3CCOC(c4ccc(C)cc4)C3)nc2c1 (centres undefined)
b: CCS(=O)(=O)c1ccc2[nH]c(N3CCOC(c4ccc(F)cc4)C3)nc2c1 (centres undefined)
c: CCCS(=O)(=O)c1ccc2nc(N3CCN(C)C(c4ccccc4)C3)[nH]c2c1 (centres undefined)
d: CCCS(=O)(=O)c1ccc2nc(N3CCCC(c4ccccc4)C3)[nH]c2c1 (centres undefined)
e: CCCS(=O)(=O)c1ccc2[nH]c(C3CN(c4ccccc4)CCO3)nc2c1 (centres undefined)
In: Sort entries by remaining at 0.5 h from minimum to maximum value. Use the labels to give the requested order.
Out: d, e, c, a, b
(d: 2.2%, e: 7.5%, c: 21.1%, a: 34%, b: 87.1%)

###

Measured target: Cytochrome P450 2D6 (Homo sapiens)
Sequence (P10635 whole entry): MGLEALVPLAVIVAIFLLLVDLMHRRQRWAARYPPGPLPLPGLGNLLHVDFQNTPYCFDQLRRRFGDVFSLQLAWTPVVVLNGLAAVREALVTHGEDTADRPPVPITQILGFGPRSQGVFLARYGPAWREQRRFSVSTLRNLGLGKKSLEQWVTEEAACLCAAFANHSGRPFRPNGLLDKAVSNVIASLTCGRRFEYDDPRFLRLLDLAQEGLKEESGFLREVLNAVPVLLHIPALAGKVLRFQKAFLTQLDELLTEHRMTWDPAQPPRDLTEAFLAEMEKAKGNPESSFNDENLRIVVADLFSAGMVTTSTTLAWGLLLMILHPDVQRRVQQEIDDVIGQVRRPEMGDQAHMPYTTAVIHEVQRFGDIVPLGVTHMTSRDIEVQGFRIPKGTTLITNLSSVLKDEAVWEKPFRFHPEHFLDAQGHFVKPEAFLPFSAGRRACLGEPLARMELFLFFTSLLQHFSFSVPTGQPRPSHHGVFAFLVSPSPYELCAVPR
Method description: Inhibition of CYP2D6
Format: ADME
Each entry below lists one item and its recorded INH value.

In: What value of INH has been recorded for this entry: O=S(=O)(c1ccc2nc(N3CCOC(c4ccccc4)C3)[nH]c2c1)C(F)(F)F (stereo not given)
Out: 5.5 µM

In: Using the record for CC(C)CS(=O)(=O)c1ccc2[nH]c(N3CCOC(c4ccccc4)C3)nc2c1 (stereo not given) , report its INH.
Out: > 20 µM

In: Please look up its INH: CCCS(=O)(=O)c1ccc2nc(N3CCN(C)C(c4ccccc4)C3)[nH]c2c1 (stereo not given)
Out: > 20 µM

In: I have this molecule here, CCCS(=O)(=O)c1ccc2[nH]c(N3CCNC(c4ccccc4)C3)nc2c1 (stereo not given) , and I need its recorded INH.
Out: > 20 µM

In: Query: INH; subject: CCS(=O)(=O)c1ccc2nc(N3CCOC(c4ccccc4)C3)[nH]c2c1 (stereo not given)
Out: > 20 µM

###

Measured target: Cytochrome P450 2C9 (Homo sapiens, UniProt P11712)
Sequence (P11712 whole entry): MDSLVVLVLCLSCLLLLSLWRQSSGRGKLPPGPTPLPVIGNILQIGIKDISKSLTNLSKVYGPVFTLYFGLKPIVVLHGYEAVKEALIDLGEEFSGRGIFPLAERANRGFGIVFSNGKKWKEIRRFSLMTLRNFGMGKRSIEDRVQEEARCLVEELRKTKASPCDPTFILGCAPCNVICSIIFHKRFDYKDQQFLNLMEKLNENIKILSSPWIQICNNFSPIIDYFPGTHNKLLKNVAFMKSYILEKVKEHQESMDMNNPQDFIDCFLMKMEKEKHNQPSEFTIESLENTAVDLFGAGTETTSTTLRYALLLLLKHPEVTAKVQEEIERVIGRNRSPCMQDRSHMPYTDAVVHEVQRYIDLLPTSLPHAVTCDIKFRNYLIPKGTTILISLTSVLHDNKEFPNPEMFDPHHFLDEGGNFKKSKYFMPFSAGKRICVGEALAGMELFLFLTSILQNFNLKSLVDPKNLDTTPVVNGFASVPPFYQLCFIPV
Method description: Inhibition of CYP2C9
Format: ADME
Result type: INH

INSERT INTO assay_data (compound, observed_value) VALUES
  ('CCCS(=O)(=O)c1ccc2[nH]c(N3CCC(c4ccccc4)C3)nc2c1 (centres undefined)', '17 µM'),
  ('CC(C)(C(F)(F)F)S(=O)(=O)c1ccc2nc(N3CCOC(c4ccccc4)C3)[nH]c2c1 (centres undefined)', '11 µM'),
  ('CC(C)S(=O)(=O)c1ccc2nc(N3CCOC(c4ccccc4)C3)[nH]c2c1 (centres undefined)', '> 20 µM'),
  ('CCCS(=O)(=O)c1ccc2nc(N3CCN(C)C(c4ccccc4)C3)[nH]c2c1 (centres undefined)', '> 20 µM'),
  ('CCS(=O)(=O)c1ccc2[nH]c(N3CCOC(c4ccc(Cl)cc4)C3)nc2c1 (centres undefined)', '> 20 µM'),
  ('CCS(=O)(=O)c1ccc2[nH]c(N3CCOC(c4ccc(OC)cc4)C3)nc2c1 (centres undefined)', '> 20 µM'),
  ('CCCS(=O)(=O)c1ccc2[nH]c(C3CN(c4ccccc4)CCO3)nc2c1 (centres undefined)', '> 20 µM'),
  ('O=S(=O)(CC(F)(F)F)c1ccc2[nH]c(N3CCOC(c4ccccc4)C3)nc2c1 (centres undefined)', '> 20 µM');

# input for lookup
In: Please provide the recorded INH for CCS(=O)(=O)c1ccc2[nH]c(N3CCOC(c4ccc(F)cc4)C3)nc2c1 (centres undefined) , tested on Cytochrome P450 2C9 (Homo sapiens, UniProt P11712).
Out: > 20 µM

###

Method description: Metabolic stability in human liver microsomes assessed as compound remaining after 30 mins
Assay type: ADME, Microsome
Particulars: read-out: Stability
Result type: remaining at 0.5 h (%)

Reference set, count: 4
INSERT INTO assay_data (molecule, result_type, observed_value) VALUES
  ('CCS(=O)(=O)c1ccc2[nH]c(N3CCOC(c4ccc(OC)cc4)C3)nc2c1 (stereo not given)', 'remaining at 0.5 h', 81),
  ('O=S(=O)(c1ccc2nc(N3CCOC(c4ccccc4)C3)[nH]c2c1)C(F)(F)F (stereo not given)', 'remaining at 0.5 h', 81.7),
  ('CCCS(=O)(=O)c1ccc2nc(N3CCOC(c4ccccc4)C3)[nH]c2c1 (stereo not given)', 'remaining at 0.5 h', 77.9),
  ('CCCS(=O)(=O)c1ccc2nc(N3CCN(C)C(c4ccccc4)C3)[nH]c2c1 (stereo not given)', 'remaining at 0.5 h', 21.9);

1: CCCS(=O)(=O)c1ccc2nc(C3CCC(=O)N(c4ccccc4)C3)[nH]c2c1 (stereo not given)
2: CCCS(=O)(=O)c1ccc2nc(N3CCCC(c4ccccc4)C3)[nH]c2c1 (stereo not given)
In: Looking at 1 and 2 , which one comes out lower in remaining at 0.5 h terms? State the label of the item chosen.
Out: 2
(2: 45.2%, 1: 81.1%)

P: CCS(=O)(=O)c1ccc2[nH]c(N3CCOC(c4ccc(Cl)cc4)C3)nc2c1 (stereo not given)
Q: CCCS(=O)(=O)c1ccc2[nH]c(C3CN(c4ccccc4)CCO3)nc2c1 (stereo not given)
In: Could you tell me which of P and Q has the lower remaining at 0.5 h reading? State your choice using its label.
Out: Q

###

Measured target: UniProtKB P05177
Sequence (P05177 whole entry): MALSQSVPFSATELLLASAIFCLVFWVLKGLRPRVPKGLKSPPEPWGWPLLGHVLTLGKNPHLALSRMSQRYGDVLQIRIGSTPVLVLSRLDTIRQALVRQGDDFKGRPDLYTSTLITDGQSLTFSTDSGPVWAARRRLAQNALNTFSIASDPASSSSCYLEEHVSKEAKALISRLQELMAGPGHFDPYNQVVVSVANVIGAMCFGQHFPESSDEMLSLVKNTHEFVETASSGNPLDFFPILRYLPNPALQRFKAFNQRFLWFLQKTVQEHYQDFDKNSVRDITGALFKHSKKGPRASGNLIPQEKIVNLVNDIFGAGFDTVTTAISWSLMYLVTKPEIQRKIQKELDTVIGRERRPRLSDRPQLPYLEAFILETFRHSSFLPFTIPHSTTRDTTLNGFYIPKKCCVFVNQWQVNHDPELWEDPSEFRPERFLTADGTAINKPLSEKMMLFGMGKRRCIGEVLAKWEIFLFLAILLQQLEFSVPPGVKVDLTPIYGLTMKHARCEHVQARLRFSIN
Method description: Inhibition of CYP1A2
Type: ADME
Result type: INH (µM)

1: CCS(=O)(=O)c1ccc2[nH]c(N3CCOC(c4ccc(Cl)cc4)C3)nc2c1 (centres undefined)
2: CC(C)(C(F)(F)F)S(=O)(=O)c1ccc2nc(N3CCOC(c4ccccc4)C3)[nH]c2c1 (centres undefined)
In: Which value of INH is smaller, the one for 1 or the one for 2 ? // output: label of the selected item
Out: 1
(1: 9.2 µM, 2: 18 µM)

###

Measured target: UniProtKB P33261
Sequence (P33261 whole entry): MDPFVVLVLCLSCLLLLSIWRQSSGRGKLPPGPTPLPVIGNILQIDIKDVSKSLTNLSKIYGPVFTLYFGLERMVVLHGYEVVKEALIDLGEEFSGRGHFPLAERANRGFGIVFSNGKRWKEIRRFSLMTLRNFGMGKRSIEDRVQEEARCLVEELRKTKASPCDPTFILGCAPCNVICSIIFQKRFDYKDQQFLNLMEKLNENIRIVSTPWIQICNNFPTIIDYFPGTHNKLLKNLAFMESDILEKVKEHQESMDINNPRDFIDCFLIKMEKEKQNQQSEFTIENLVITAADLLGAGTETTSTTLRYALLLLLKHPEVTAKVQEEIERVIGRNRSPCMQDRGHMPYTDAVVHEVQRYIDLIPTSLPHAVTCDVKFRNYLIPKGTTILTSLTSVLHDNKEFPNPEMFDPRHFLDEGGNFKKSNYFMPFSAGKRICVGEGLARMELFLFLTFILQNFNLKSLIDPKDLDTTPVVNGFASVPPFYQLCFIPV
Method description: Inhibition of CYP2C19
Type: ADME
Attribute: INH

Example entries and their recorded answers appear below.
INSERT INTO measurements (compound, observed_value) VALUES
  ('CCCS(=O)(=O)c1ccc2nc(N3CCN(C)C(c4ccccc4)C3)[nH]c2c1 (stereo not given)', '> 20 µM'),
  ('CCS(=O)(=O)c1ccc2[nH]c(N3CCOC(c4ccc(OC)cc4)C3)nc2c1 (stereo not given)', '> 20 µM'),
  ('CC(C)CS(=O)(=O)c1ccc2[nH]c(N3CCOC(c4ccccc4)C3)nc2c1 (stereo not given)', '> 20 µM');

In: API: value(readout= INH, system= UniProtKB P33261, query= CCS(=O)(=O)c1ccc2nc(N3CCOC(c4ccccc4)C3)[nH]c2c1 (stereo not given) )
Out: > 20 µM

In: Provide the documented INH with UniProtKB P33261 as the system for CCS(=O)(=O)c1ccc2[nH]c(N3CCOC(c4ccc(F)cc4)C3)nc2c1 (stereo not given)
Out: > 20 µM

###

Method description: Metabolic stability in rat liver microsomes assessed as compound remaining after 30 mins
Type: ADME, Microsome
Particulars: read-out: Stability
Result type: remaining at 0.5 h (%)

INSERT INTO assay_data (compound, result_type, observed_value) VALUES
  ('CCS(=O)(=O)c1ccc2[nH]c(N3CCOC(c4ccc(OC)cc4)C3)nc2c1 (stereo not drawn)', 'remaining at 0.5 h', 48),
  ('CCCS(=O)(=O)c1ccc2nc(N3CCOC(c4ccccc4)C3)[nH]c2c1 (stereo not drawn)', 'remaining at 0.5 h', 45.9),
  ('O=S(=O)(CC(F)(F)F)c1ccc2[nH]c(N3CCOC(c4ccccc4)C3)nc2c1 (stereo not drawn)', 'remaining at 0.5 h', 63.5),
  ('CCCS(=O)(=O)c1ccc2[nH]c(C3CCOC(c4ccccc4)C3)nc2c1 (mixture of isomers)', 'remaining at 0.5 h', 74),
  ('O=S(=O)(c1ccc2nc(N3CCOC(c4ccccc4)C3)[nH]c2c1)C(F)(F)F (stereo not drawn)', 'remaining at 0.5 h', 67.9),
  ('CCCS(=O)(=O)c1ccc2[nH]c(N3CCNC(c4ccccc4)C3)nc2c1 (stereo not drawn)', 'remaining at 0.5 h', 44),
  ('CCS(=O)(=O)c1ccc2nc(N3CCOC(c4ccccc4)C3)[nH]c2c1 (stereo not drawn)', 'remaining at 0.5 h', 76.1),
  ('CCCS(=O)(=O)c1ccc2nc(C3CCC(=O)N(c4ccccc4)C3)[nH]c2c1 (stereo not drawn)', 'remaining at 0.5 h', 62);
